- run.description: Toxicity in nude mouse xenografted with human NCI-H1975 cells harboring EGFR T790M/L858R mutant assessed as mortality at 15 mg/kg, po administered once daily for 7 days relative to control
- Type: organism-based
- test.context: in vivo, time 7 day, read-out: Activity
endpoint.label: mortality at 168 h

| molecule | value.measured |
| --- | --- |
| C=CC(=O)Nc1cc(Nc2nccc(-c3cn(C4CC4)c4ccccc34)n2)c(OC)cc1[S+]([O-])CCN(C)C (stereo unspecified) | < 5% |

====

- run.description: MRT in Sprague-Dawley rat at 2 mg/kg, iv administered as single dose
- Format: ADME, organism-based
- test.context: in vivo
MRT: recorded values

| molecule | MRT, min |
| --- | --- |
| C=CC(=O)Nc1cc(Nc2nccc(-c3cn(C)c4ccccc34)n2)c(OC)cc1[S+]([O-])CCN(C)C (configuration not stated) | 53.4 |
| C=CC(=O)Nc1cc(Nc2nccc(-c3cn(C4CC4)c4ccccc34)n2)c(OC)cc1[S+]([O-])CCN(C)C (configuration not stated) | 60.6 |
